Numbers sourced from ChEMBL document CHEMBL5046245.

# Tested on: HepG2
# assay_explanation: Antiproliferative activity against human HepG2 cells assessed as inhibition of cell growth measured after 48 hrs by MTT assay
# Format: functional, cell-based
# condition_details: HepG2, 48 h
measure: pIC50
Numbers only, as −log10 of the molar value.

Example entries and their recorded answers appear below.
Sample COc1cc(O[C@@H]2O[C@H](CO)[C@@H](O)[C@H](O)[C@H]2O)cc2ccc3cccc(O)c3c12 ; pIC50 observed: 5.58

Short answer for COc1ccc(CCc2cc(OC)c(OC)c(OC)c2)cc1O : pIC50 was 7.00

Now take the following compound into account.
For record COc1cc(O)cc2c1-c1c(O)cccc1[C@@H](O)C2 the listed pIC50 is 5.59
